Every entry's value here was drawn from the supplement of paper PMC4862054.

- Tested on: HCC1143
- details: 72 h
recorded.metric: EC50, CellTiter-Glo (nM)

Examples with their reported EC50, CellTiter-Glo follow.
COc1cc(Nc2ncc(F)c(Nc3ccc4c(n3)N(COP(=O)(O)O)C(=O)C(C)(C)O4)n2)cc(OC)c1OC = 530
CC[C@H](CC#N)OC(=O)N[C@@H](C)c1cccc(NC(=O)Nc2ccc(-c3cnco3)c(OC)c2)c1 = 359

A = CC(C)C[C@H](NC(=O)[C@H](CCc1ccccc1)NC(=O)CN1CCOCC1)C(=O)N[C@@H](Cc1ccccc1)C(=O)N[C@@H](CC(C)C)C(=O)[C@@]1(C)CO1
B = COc1cc2c(cc1-c1c(C)noc1C)ncc1[nH]c(=O)n([C@H](C)c3ccccn3)c12
Which has the smaller recorded EC50, CellTiter-Glo, A or B ? // respond with label for picked entry
A
(A: 8.56 nM, B: 1380 nM)
